Target: Neutrophil gelatinase-associated lipocalin (Homo sapiens)
Sequence (P80188 whole entry): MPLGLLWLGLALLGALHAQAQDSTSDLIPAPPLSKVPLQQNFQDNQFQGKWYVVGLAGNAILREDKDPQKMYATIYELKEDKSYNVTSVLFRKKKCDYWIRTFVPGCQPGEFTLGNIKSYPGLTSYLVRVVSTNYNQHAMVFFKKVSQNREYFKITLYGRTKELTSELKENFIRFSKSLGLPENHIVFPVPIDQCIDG
Assay: Fluorescence quenching titrations
Settings: pH 7.4
Protocol: The ligand solutions (10uM siderophore, TBS with 5% (v/v) DMSO, pH 7.4) were prepared from 4mM stock solution in DMSO. The protein solution was prepared as previously reported. Small amounts of ligand solution were mixed with the protein solution and equilibrated for at least 4 min before fluorescence measurement. The data was fit to a one-to-one binding model with two parameters, Kd and fluorescence response, using the program DYNAFIT.
pKd: −log10 of the molar value.

| structure.as.smiles | pKd |
| --- | --- |
| C[C@@H](O)[C@H](NC(=O)c1cccc(O)c1O)C(=O)N(CCCNC(=O)c1cccc(O)c1O)CCCNC(=O)c1cccc(O)c1O | 7.92 |
| C[C@H]1OC(c2cccc(O)c2O)=N[C@@H]1C(=O)N(CCCNC(=O)c1cccc(O)c1O)CCCNC(=O)c1cccc(O)c1O | 7.47 |
| C[C@@H](O)[C@H](NC(=O)c1cccc(O)c1O)C(=O)NCCCN(CCCNC(=O)c1cccc(O)c1O)C(=O)[C@@H](NC(=O)c1cccc(O)c1O)[C@@H](C)O | 7.74 |
